Ref: ChEMBL document CHEMBL3826926

- TEST SUMMARY: Ratio of AUC in brain to plasma in Sprague-Dawley rat at 1 mg/kg, po
- Format: ADME, organism-based
- CONDITION CONTEXT: read-out: Ratio AUC
OBSERVED PROPERTY: Kp

Returns the measured Kp for the input compound. Input: `Nc1ccc(-c2ccc(F)cc2)cc1NC(=O)[C@@H]1C[C@H]2CC[C@@H](C1)O2` 0.17

---

- TEST SUMMARY: AUC in Sprague-Dawley rat plasma at 1 mg/kg, po
- Assay type: ADME, organism-based
OBSERVED PROPERTY: AUC (µM·h)
Give the quantity in µM·h, number only.

Returns the measured AUC for the input molecule. Input: `Nc1ccc(-c2ccc(F)cc2)cc1NC(=O)[C@@H]1C[C@H]2CC[C@@H](C1)O2` 10.8

---

Task for the reader: assign each of the following compounds its reported T1/2.
- ASSAYED TARGET: Histone deacetylase 3 (Homo sapiens)
Give the quantity in min, number only.

Returns the measured T1/2 for the input compound. Input: `Nc1ccc(-c2cccnc2)cc1NC(=O)C1CCOCC1` 20.8

Can you check Nc1ccc(-c2ccc(F)cc2)cc1NC(=O)C1C2COCC21 (configuration not stated) next? 217

Can you check `Nc1ccc(-c2ccc(F)cc2)cc1NC(=O)[C@@H]1C[C@H]2CC[C@@H](C1)O2` next? 132

Can you check `Nc1ccc(-c2ccccc2)cc1NC(=O)C1CCOCC1` next? 3.85

---

Task for the reader: assign each of the following compounds its reported remaining at 1 h, 1 µM.
- TEST SUMMARY: Stability in mouse liver microsomes assessed as compound remaining at 1 uM after 60 mins by UPLC-MS analysis
- Type: ADME
- CONDITION CONTEXT: read-out: Stability
Give the quantity in %, number only.

Returns the measured remaining at 1 h, 1 µM for the input compound. Input: Nc1ccc(-c2ccc(F)cc2)cc1NC(=O)C1C2COCC21 (centres undefined) 60

Can you check `Nc1ccc(-c2ccc(F)cc2)cc1NC(=O)C1CCOCC1` next? 54

Can you check `Nc1ccc(-c2ccc(F)cc2)cc1NC(=O)[C@@H]1C[C@H]2CC[C@@H](C1)O2` next? 62

Can you check Nc1ccc(-c2ccc(F)cc2)cc1NC(=O)C1COc2ccccc2C1 (centres undefined) next? 25

---

- ASSAYED TARGET: Histone deacetylase 7 (Homo sapiens)
- Sequence (Q8WUI4 whole entry): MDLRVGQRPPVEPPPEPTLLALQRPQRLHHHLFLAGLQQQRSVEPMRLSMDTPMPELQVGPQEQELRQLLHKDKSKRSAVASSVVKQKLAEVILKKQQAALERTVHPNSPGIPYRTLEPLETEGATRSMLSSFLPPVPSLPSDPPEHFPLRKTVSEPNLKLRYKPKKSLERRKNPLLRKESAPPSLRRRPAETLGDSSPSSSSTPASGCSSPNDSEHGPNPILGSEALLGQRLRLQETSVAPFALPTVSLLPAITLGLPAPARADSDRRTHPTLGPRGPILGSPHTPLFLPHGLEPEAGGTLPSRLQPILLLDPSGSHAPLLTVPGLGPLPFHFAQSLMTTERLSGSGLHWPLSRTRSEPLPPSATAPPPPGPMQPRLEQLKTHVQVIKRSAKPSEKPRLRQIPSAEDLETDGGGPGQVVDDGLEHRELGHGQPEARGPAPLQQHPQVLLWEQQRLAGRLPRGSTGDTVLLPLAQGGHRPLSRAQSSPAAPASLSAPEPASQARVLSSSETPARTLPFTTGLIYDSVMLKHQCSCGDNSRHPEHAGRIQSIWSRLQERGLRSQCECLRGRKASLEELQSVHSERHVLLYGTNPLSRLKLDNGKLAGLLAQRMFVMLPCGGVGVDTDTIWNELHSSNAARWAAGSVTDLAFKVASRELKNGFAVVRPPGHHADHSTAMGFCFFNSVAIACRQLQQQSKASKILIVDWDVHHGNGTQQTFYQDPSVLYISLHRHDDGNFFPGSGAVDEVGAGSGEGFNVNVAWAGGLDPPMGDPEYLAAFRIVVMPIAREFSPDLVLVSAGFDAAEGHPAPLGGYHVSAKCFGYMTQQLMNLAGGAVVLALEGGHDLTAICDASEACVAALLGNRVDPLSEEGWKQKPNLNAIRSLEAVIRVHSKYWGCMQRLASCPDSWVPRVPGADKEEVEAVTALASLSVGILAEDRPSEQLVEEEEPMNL
- TEST SUMMARY: Inhibition of N-terminal GST-tagged human recombinant HDAC7 (518 to end residues) expressed in baculovirus coexpressed in fall armyworm Sf9 cells using carboxyfluorescein (FAM)-labeled acetylated/ trifluoroacetylated peptide as substrate after 60 mins by fluorescence assay
pIC50: −log10 of the molar value.
OBSERVED PROPERTY: pIC50

Returns the measured pIC50 for the input compound. Input: `Nc1ccc(-c2ccc(F)cc2)cc1NC(=O)[C@@H]1C[C@H]2CC[C@@H](C1)O2` < 4.48

---

- ASSAYED TARGET: UniProt:Q9BY41
- Sequence (Q9BY41 whole entry): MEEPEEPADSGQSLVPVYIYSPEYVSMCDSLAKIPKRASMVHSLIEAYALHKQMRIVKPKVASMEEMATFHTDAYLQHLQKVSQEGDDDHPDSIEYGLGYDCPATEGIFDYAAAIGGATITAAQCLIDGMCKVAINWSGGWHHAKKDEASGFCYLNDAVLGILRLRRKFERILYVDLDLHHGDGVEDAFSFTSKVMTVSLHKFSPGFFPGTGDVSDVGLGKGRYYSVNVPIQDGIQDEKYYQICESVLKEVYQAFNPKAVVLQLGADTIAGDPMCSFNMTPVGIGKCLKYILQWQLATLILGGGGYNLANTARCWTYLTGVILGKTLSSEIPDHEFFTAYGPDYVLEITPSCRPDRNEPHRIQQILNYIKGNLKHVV
- TEST SUMMARY: Inhibition of C-terminal His-tagged full length human recombinant HDAC8 expressed in baculovirus coexpressed in fall armyworm Sf9 cells using carboxyfluorescein (FAM)-labeled acetylated/ trifluoroacetylated peptide as substrate after 60 mins by fluorescence assay
OBSERVED PROPERTY: IC50

Returns the measured IC50 for the input molecule. Input: `Nc1ccc(-c2ccc(F)cc2)cc1NC(=O)[C@@H]1C[C@H]2CC[C@@H](C1)O2` > 33.3 µM

---

- ASSAYED TARGET: Histone deacetylase 1 (Homo sapiens)
- Sequence (Q13547 whole entry): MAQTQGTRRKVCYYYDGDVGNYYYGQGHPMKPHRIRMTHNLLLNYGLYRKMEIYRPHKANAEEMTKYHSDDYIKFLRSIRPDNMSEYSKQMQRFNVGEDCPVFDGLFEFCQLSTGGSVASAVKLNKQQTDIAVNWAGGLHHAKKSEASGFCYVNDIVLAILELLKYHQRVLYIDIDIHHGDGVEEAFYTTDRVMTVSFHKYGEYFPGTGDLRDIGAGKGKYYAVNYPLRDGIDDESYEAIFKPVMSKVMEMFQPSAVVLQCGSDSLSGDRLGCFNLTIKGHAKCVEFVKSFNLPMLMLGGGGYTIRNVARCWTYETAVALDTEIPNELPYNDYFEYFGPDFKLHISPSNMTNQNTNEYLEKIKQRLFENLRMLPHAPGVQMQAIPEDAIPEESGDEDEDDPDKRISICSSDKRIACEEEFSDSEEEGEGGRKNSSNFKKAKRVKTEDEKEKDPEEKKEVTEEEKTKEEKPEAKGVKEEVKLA
- CONDITION CONTEXT: Sf9
- Description: Inhibition of C-terminal His-tagged and C-terminal FLAG-tagged full length human recombinant HDAC1 expressed in baculovirus coexpressed in fall armyworm Sf9 cells using carboxyfluorescein (FAM)-labeled acetylated/ trifluoroacetylated peptide as substrate assessed as residence time by fluorescence assay
OBSERVED PROPERTY: T1/2 (min)
Give the quantity in min, number only.

Returns the measured T1/2 for the input molecule. Input: `Nc1ccc(-c2cccc(F)c2)cc1NC(=O)C1CCOCC1` 9.67

Can you check `Nc1ccc(-c2cccnc2)cc1NC(=O)C1CCOCC1` next? 6.45

Can you check `Nc1ccc(-c2ccncc2)cc1NC(=O)C1CCOCC1` next? 2.35

Can you check Nc1ccc(-c2ccc(F)cc2)cc1NC(=O)C1C2COCC21 (configuration not stated) next? 13

Can you check `Nc1ccc(-c2ccc(C(F)(F)F)cc2)cc1NC(=O)C1CCOCC1` next? 26.7

Can you check `Nc1ccc(-c2ccc(F)cc2)cc1NC(=O)[C@@H]1C[C@H]2CC[C@@H](C1)O2` next? 3

Can you check `Nc1ccc(-c2ccccc2)cc1NC(=O)C1CCOCC1` next? 0.119

---

- ASSAYED TARGET: Histone deacetylase 3 (Homo sapiens, UniProt O15379)
- Sequence (O15379 whole entry): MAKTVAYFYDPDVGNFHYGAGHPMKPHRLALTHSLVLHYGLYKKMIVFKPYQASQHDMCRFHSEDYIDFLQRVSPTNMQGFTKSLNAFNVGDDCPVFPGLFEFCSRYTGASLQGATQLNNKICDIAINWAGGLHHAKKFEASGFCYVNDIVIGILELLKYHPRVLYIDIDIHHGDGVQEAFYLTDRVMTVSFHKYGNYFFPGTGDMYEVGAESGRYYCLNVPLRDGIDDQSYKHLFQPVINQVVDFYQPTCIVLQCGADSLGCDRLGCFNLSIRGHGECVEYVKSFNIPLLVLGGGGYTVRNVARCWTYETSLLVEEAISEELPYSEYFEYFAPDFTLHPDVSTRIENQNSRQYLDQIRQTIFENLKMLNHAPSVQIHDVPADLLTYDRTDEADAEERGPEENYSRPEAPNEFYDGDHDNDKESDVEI
Task for the reader: assign each of the following compounds its reported T1/2.

Returns the measured T1/2 for the input compound. Input: `Nc1ccc(-c2ccncc2)cc1NC(=O)C1CCOCC1` > 33.3 min

Can you check `Nc1ccc(-c2cccc(F)c2)cc1NC(=O)C1CCOCC1` next? > 33.3 min

Can you check `Nc1ccc(-c2ccc(C(F)(F)F)cc2)cc1NC(=O)C1CCOCC1` next? > 33.3 min
